Record form. Attribute: Average Value of Evaluation Points. Fill in for each entry.
Assay: Determination of the threshold concentration (taste testers, Schutz and Pilgrim method)
Set-up: key: mean of 5 testers; 0 = not sweet, 3 = very sweet
Details: concentration 1:100000
When you answer, write just the number.

I have this compound here, Cc1sc2c(c1C)C(=O)NS2(=O)=O.[Na] , and I need its recorded Average Value of Evaluation Points.
1.4

# Average Value of Evaluation Points lookup, item Cc1sc2c(c1C)C(=O)NS2(=O)=O
1.6

Return reported Average Value of Evaluation Points; argument: O=C1NS(=O)(=O)c2ccccc21.[Na] [W, Saccharin sodium, reference compound]
0.0

Requested field: Average Value of Evaluation Points. Item: O=C1NS(=O)(=O)c2ccccc21 [V, Saccharin, reference compound]
0.4

Look up Average Value of Evaluation Points for this compound: Cc1cc2c(s1)S(=O)(=O)NC2=O
0.2

Fill in the blank: the reported Average Value of Evaluation Points of Cc1cc2c(s1)S(=O)(=O)NC2=O.[Ca] is ____.
0.0

// provenance: patent US4430355A
